Run description: melting temperature; fluorescence melt of hairpins on a sequencing array, two-state fit, raised by 9.35 °C to match UV melts
Study conditions: sodium 0.088 M
Recorded endpoint: Tm (°C)
Numbers only, in °C.

Dear colleague, could you please provide Tm for the sequences listed below?
1. GGGTAGCGAAAGCTCCC (((.(((....))))))
2. GTTTGGGCGAAAGCCAAC (((..(((....))))))
3. GCGCCGGGAAACCGACGC (((.(((....))).)))
4. GCAGCTCGAAAGAGTGC (((.(((....))))))
5. GCGGAAGCGAAAGCTCGC (((..(((....))))))
6. GATCGACACCTCGATC ((((((....))))))

Response:
1: 53.6; 2: 36.1; 3: 60.9; 4: 51.4; 5: 52.1; 6: 52.5
